assay: Stability in human liver microsomes assessed as parent compound remaining at 0.1 uM preincubated with MgCl2 for 10 mins followed by NADPH addition measured immediately by LC-MS/MS analysis; type: ADME, Microsome; conditions: read-out: Stability
Listed next: entries and their corresponding remaining at 0 min, 0.1 µM.
Value and unit, in that order.

Entry CC(C)OC(=O)OC(C)n1c(=O)ccn([C@@H]2O[C@H](CO[P@@](=O)(N[C@@H](C)C(=O)OC(C)C)Oc3ccccc3)[C@@H](O)[C@@]2(C)F)c1=O (some centres not stated) , remaining at 0 min, 0.1 µM reported as 100%

// switching to the query molecule
Value of remaining at 0 min, 0.1 µM reported for the molecule `CC(C)COC(=O)n1c(=O)ccn([C@@H]2O[C@H](CO[P@@](=O)(N[C@@H](C)C(=O)OC(C)C)Oc3ccccc3)[C@@H](O)[C@@]2(C)F)c1=O` is 100%
